# procedure-text: Drug concentration in CD-1 mouse plasma at 3 mg/kg, iv measured at 60 mins
# Type: ADME, organism-based
Reported concentration at 1 h values for a set of molecules
measured-attribute: concentration at 1 h (ng/mL)

In [3]: df
Out[3]:
                              line_notation  readout_value
0        O=C(NO)c1ccc(CN2CCc3ccc(F)cc32)cc1            0.8
1  CN1CCc2c(c3ccccc3n2Cc2ccc(C(=O)NO)cc2)C1           20.3
2                 O=C(NO)c1ccc(Cn2cccn2)cc1              6

----------
# assay-system: Protein deacetylase HDAC6 (Mus musculus, UniProt Q9Z2V5)
# Sequence (Q9Z2V5 whole entry): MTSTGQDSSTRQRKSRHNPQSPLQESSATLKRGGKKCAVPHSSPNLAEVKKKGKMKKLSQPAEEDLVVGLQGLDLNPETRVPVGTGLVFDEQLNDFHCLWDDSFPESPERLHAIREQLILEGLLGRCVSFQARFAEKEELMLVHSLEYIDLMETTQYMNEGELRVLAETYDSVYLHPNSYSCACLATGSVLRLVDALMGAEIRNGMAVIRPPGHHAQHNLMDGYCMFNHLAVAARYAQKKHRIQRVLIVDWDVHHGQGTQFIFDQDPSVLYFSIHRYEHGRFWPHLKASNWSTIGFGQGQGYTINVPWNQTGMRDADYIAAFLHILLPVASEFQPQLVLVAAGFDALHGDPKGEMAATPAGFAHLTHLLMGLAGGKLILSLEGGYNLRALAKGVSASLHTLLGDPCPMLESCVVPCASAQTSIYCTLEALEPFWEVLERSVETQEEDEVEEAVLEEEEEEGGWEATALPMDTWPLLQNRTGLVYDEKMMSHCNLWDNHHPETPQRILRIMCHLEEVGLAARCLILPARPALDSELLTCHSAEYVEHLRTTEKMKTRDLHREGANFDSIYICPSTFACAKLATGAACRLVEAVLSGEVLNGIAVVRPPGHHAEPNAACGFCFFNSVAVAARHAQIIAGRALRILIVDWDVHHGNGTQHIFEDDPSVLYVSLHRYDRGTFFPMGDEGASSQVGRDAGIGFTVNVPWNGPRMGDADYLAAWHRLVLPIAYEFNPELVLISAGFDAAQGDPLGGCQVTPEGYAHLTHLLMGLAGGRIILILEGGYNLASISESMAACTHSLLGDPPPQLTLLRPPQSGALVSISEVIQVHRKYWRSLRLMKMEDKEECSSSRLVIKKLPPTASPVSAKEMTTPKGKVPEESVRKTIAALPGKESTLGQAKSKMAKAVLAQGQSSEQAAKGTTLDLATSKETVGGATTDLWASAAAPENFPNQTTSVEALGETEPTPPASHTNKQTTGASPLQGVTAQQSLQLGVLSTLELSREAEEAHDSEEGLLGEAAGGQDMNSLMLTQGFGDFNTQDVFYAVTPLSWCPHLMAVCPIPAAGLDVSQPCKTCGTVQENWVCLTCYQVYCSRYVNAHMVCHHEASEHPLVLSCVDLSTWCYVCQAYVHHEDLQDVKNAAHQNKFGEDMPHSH
# procedure-text: Inhibition of HDAC6 in mouse N2A cells assessed as increase in alpha tubulin acetylation
pEC50: −log10 of the molar value.
Reported pEC50 values for a set of molecules
measured-attribute: pEC50

                                   molecule  readout_value
0                 O=C(NO)c1ccc(Cn2cccn2)cc1           6.03
1  CN1CCc2c(c3ccccc3n2Cc2ccc(C(=O)NO)cc2)C1 [TUBASTATIN A]           6.84
2        O=C(NO)c1ccc(CN2CCc3ccc(F)cc32)cc1           6.60
